- Target Desc: MAP kinase-activated protein kinase 5 (Homo sapiens) (UniProt Q8IW41);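 further: mean inhibition of PRAK measured in the GSK PKIS screen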
- Sequence (Q8IW41 whole entry): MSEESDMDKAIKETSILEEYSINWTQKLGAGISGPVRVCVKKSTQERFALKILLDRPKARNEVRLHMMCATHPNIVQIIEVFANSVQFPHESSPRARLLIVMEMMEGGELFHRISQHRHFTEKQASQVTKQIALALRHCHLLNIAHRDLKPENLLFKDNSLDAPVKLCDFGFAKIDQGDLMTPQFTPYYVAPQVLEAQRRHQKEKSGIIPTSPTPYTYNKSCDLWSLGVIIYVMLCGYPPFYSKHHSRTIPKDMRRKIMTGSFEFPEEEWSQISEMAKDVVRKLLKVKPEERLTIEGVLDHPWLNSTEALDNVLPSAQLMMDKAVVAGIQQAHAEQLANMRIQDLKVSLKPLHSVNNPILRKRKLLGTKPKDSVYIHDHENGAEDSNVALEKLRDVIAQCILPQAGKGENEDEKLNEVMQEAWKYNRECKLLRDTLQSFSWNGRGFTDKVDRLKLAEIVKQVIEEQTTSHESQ
- Particulars: at 1 µM
Provide the reported inhibition of each item.
Could you give the number and then its unit, please?

Illustrative cases are given below, each with its answer.
- Chemical Structure: "Nc1ccc(C#Cc2cncnc2Nc2ccc(OCc3cccc(F)c3)c(Cl)c2)cc1"
  Attribute Measured: "inhibition"
  Value Observed: "0.75%"
- Chemical Structure: "Cc1ccc(NC(=O)CC2CC2)cc1-c1ccc(C(=O)NCC2CC2)cc1"
  Attribute Measured: "inhibition"
  Value Observed: "1.26%"
- Chemical Structure: "NS(=O)(=O)c1ccc(-c2cc3ccncc3cc2OCc2ccccc2)cc1"
  Attribute Measured: "inhibition"
  Value Observed: "1.86%"
- Chemical Structure: "CN(c1ccc(NC(=O)Nc2ccc(OC(F)(F)F)cc2)cc1)c1ccnc(Nc2cccc(S(N)(=O)=O)c2)n1"
  Attribute Measured: "inhibition"
  Value Observed: "-0.8%"

Form: compound = CS(=O)(=O)Nc1cccc(-c2ccc3c(NC(=O)C4CC4)n[nH]c3c2)c1 ; inhibition = -1.16%

====

- Target Desc: Ephrin type-B receptor 4 (Homo sapiens) (UniProt P54760);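 further: each value is a mean percent inhibition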
- Sequence (whole entry): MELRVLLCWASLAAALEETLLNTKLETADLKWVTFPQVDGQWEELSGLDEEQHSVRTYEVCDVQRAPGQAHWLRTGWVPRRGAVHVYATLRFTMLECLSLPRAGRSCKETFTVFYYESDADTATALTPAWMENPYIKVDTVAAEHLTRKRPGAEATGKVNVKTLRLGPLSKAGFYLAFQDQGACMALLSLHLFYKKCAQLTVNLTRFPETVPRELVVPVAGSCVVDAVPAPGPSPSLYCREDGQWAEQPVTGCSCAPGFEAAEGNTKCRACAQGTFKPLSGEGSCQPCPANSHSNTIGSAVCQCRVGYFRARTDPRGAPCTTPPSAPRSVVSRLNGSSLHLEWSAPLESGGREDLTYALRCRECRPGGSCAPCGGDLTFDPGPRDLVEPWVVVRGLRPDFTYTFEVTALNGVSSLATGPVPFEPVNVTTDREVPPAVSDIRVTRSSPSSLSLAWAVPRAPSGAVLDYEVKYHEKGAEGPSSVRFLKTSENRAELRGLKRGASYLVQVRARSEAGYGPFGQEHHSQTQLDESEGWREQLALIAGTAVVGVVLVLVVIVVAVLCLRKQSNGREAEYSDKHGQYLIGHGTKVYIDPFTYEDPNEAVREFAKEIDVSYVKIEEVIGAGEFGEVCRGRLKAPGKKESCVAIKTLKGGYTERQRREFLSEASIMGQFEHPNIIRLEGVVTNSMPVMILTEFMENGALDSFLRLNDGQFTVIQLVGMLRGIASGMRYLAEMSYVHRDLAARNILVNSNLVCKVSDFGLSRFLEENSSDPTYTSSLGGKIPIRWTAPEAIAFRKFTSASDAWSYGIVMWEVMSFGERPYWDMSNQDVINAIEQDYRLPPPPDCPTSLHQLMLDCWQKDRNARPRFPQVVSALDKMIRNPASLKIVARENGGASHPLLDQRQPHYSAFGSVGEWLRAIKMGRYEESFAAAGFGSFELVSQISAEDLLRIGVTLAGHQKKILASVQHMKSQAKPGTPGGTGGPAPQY
- Particulars: at 0.1 µM
Attribute Measured: inhibition (%)
Give bare numbers, in %.

Illustrative cases are given below, each with its answer.
- Compound: "Nc1ccc(C#Cc2cncnc2Nc2ccc(OCc3cccc(F)c3)c(Cl)c2)cc1"
  Target Desc: "Ephrin type-B receptor 4 (Homo sapiens) (UniProt P54760)"
  inhibition [%]: 0.47
- Compound: "CN(C)CCCn1c(-c2nonc2N)nc2cnccc21"
  Target Desc: "Ephrin type-B receptor 4 (Homo sapiens) (UniProt P54760)"
  inhibition [%]: 3.38
- Compound: "COc1cc(Nc2nccc(-c3cnn4ncccc34)n2)cc(OC)c1"
  Target Desc: "Ephrin type-B receptor 4 (Homo sapiens) (UniProt P54760)"
  inhibition [%]: 2.69
- Compound: "CC(C)c1ccc2c(c1)NC(=O)/C2=N/Nc1ccc(S(N)(=O)=O)cc1"
  Target Desc: "Ephrin type-B receptor 4 (Homo sapiens) (UniProt P54760)"
  inhibition [%]: 1.07
- Compound: "[O-][S+]1CCN(Cc2ccc(-c3ccc4ncnc(Nc5ccc(OCc6ccccc6)c(Cl)c5)c4c3)o2)CC1"
  Target Desc: "Ephrin type-B receptor 4 (Homo sapiens) (UniProt P54760)"
  inhibition [%]: -0.7

For each entry beneath this line, provide reported inhibition.
1. CCS(=O)(=O)c1ccc(OC)c(Nc2nccc(N(C)c3ccc4c(C)n[nH]c4c3)n2)c1
2. Nc1nccc(-c2c(-c3ccc(F)cc3)ncn2CCCN2CCOCC2)n1
3. COc1cc(/C=N/Nc2ncnc3c2cnn3C(C)C)ccc1O
4. CCCN1CCCC(c2ccc(Nc3nc(Nc4cc(F)ccc4C(N)=O)c4cc[nH]c4n3)c(OC)c2)C1 (centres undefined)
5. CCn1c(-c2nonc2N)nc2c(C#CC(C)(C)O)nc(OCCNC)cc21
6. Cc1ccc2c(-c3ccnc(Nc4cccc(C(F)(F)F)c4)n3)c(-c3ccccc3)nn2n1
7. Cc1ccc(O)cc1Nc1ccnc2ccc(S(C)(=O)=O)cc12

Result ::
17.4
2.19
3.42
2.18
2.31
7.62
91.6

For each entry beneath this line, provide reported inhibition.
1. Oc1cccc(-c2nc(-c3ccccc3)[nH]c2-c2ccncc2)c1
2. c1ccc(Cc2nc3ccc(Nc4ncnc5ccccc45)cc3[nH]2)cc1
3. c1ccc(Nc2ncc(-c3ccccc3)o2)cc1

Result ::
6.41
1.42
4.58

For each entry beneath this line, provide reported inhibition.
1. COC(=O)c1ccc2c(c1)C(=Cc1cc(Br)c(O)c(Br)c1)C(=O)N2
2. O=C1Nc2ccccc2/C1=C/Nc1ccc2[nH]c(=O)[nH]c2c1

Result ::
2.41
5.44

For each entry beneath this line, provide reported inhibition.
1. NS(=O)(=O)c1ccc(N/N=C2\C(=O)Nc3ccc(Cl)cc32)cc1
2. N#Cc1c(NC(=O)c2ccccc2F)sc2c1CCCC2
3. CN(C)c1cc2c(Nc3ccc4c(cnn4Cc4ccccc4)c3)ncnc2cn1
4. NS(=O)(=O)c1cccc(-c2cc3ccncc3cc2OCc2ccccc2)c1
5. C[C@@H](Oc1cc(-n2cnc3ccc(OC[C@@H](O)CO)cc32)sc1C(N)=O)c1ccccc1Cl
6. CCOc1nccc2c1nc(-c1nonc1N)n2CC

Result ::
1. 1.05
2. -2.29
3. 0.91
4. 2.45
5. -3.41
6. 2.78

For each entry beneath this line, provide reported inhibition.
1. COc1ccc(-c2nn3ncccc3c2-c2ccnc(Nc3cccc(C(F)(F)F)c3)n2)cc1
2. O=S(=O)(CCOCc1ccc(-c2ccc3ncnc(Nc4ccc(OCc5cccc(F)c5)c(Cl)c4)c3c2)o1)c1ccccc1
3. COc1ccc2ncnc(Nc3ccc(OCc4ccccc4)cc3)c2c1
4. CCn1c(-c2nonc2N)nc2ccc(F)cc21

Result ::
1: 0.66; 2: 1.15; 3: 2.58; 4: 1.64

For each entry beneath this line, provide reported inhibition.
1. Cc1cc(Cl)cc2c1NC(=O)C2=NNc1ccc(S(N)(=O)=O)cc1
2. NS(=O)(=O)c1ccc(NC=C2C(=O)Nc3ccc4ncsc4c32)cc1
3. FC(F)(F)c1ccc(-c2nn3ncccc3c2-c2ccnc(Nc3ccc4c(c3)OCCO4)n2)cc1
4. CC(C)c1ccc(Nc2nccc(-c3cnn4ncccc34)n2)cc1
5. NS(=O)(=O)c1ccc(-c2cc3ccncc3cc2OCc2ccccc2)cc1
6. ON=C1CCc2cc(-c3nc(C4CCNCC4)[nH]c3-c3ccncc3)ccc21
7. CCS(=O)(=O)c1ccc(OC)c(Nc2ncc(-c3cccc(OC)c3)o2)c1
8. CN(C)C(=O)O[C@H]1CN[C@H](C#Cc2cc3ncnc(Nc4ccc(OCc5cccc(F)c5)c(Cl)c4)c3s2)C1

Result ::
1. 1.3
2. 4.95
3. 0.48
4. 4.64
5. 2.88
6. -0.77
7. 3.32
8. 2.43

For each entry beneath this line, provide reported inhibition.
1. Cc1ccc(Nc2ccnc(Nc3cccc(C(N)=O)c3)n2)cc1O
2. Nc1nccc(C#Cc2cncnc2Nc2ccc(OCc3cccc(F)c3)c(Cl)c2)n1
3. NS(=O)(=O)c1ccc(Nc2cc(-c3cccc(O)c3)n[nH]2)cc1
4. N#Cc1cccc(Nc2nccc(-c3cnn4ncccc34)n2)c1

Result ::
2.22
1.01
1.74
5.63
